- target.or.system: Full-length (FL)-PRMT5-MEP50 enzyme complex (Homo sapiens, UniProt O14744)
- Construct: Full-length (FL)-PRMT5-MEP50 enzyme complex (recombinant proteins from baculovirus-transfected Sf21 cells: FL-PRMT5; MW=73837 kDa and FL-MEP50; MW=38614); made in house; host or cells: baculovirus-transfected Sf21 insect cells
- Sequence (O14744 whole entry): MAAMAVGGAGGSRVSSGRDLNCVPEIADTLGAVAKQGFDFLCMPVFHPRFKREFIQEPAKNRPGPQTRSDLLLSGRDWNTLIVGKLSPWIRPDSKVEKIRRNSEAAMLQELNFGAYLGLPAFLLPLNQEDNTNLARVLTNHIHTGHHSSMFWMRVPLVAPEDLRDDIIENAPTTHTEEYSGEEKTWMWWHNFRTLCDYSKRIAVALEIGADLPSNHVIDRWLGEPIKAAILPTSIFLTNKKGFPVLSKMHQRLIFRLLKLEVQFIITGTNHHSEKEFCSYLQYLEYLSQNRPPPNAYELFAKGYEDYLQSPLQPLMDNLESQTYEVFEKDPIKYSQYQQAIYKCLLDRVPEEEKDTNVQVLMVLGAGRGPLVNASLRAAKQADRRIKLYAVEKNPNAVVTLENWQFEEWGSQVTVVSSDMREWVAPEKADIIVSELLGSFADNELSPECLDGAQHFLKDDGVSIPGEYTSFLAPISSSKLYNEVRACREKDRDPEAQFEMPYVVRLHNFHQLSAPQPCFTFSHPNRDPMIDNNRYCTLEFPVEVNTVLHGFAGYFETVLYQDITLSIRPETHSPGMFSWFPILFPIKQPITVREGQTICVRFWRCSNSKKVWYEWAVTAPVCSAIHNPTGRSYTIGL
- Sequence (Q9BQA1 whole entry partner): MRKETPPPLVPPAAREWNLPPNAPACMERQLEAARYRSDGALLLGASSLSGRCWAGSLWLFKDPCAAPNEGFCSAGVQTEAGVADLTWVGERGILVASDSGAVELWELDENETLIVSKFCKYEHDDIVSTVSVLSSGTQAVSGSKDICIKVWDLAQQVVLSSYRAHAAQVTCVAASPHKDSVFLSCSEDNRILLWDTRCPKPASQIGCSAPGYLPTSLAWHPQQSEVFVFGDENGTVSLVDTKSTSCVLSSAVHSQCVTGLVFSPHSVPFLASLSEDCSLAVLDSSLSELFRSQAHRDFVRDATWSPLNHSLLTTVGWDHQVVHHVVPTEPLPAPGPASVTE
- measurement.description: PRMT5-MEP50 Enzyme Methylation Assay
- Assay type: biochemical
- protocol.conditions: one EC50: 4 parameters single site sigmoidal model; EC50 1: first value of 7 parameters biphasic model; 1.0 nM PRMT5-MEP50, 75 nM biotinylated peptide, 15 μM SAM; read-out: Enzyme Methylation Assay (EC50 or EC50 1)
Here the recorded log10 EC50 is given for each entry.
Form field - Quantity: EC50; Unit: nM; Scale: log10

Use the examples below as a reference point.
{"compound": "Nc1nc2cc(O[C@H]3CC[C@@]4(O)[C@@H]3O[C@@H](n3cc(C5CC5)c5c(N)ncnc53)[C@@H]4O)ccc2cc1Br", "recorded.number": -0.30}
{"compound": "CNc1ncnc2c1ccn2[C@@H]1C[C@@H]2[C@H](Cc3ccc4cc(Br)c(N)nc4c3)CC[C@]2(O)[C@H]1O", "recorded.number": -0.40}
{"compound": "Cc1nc(N)c2ccn([C@@H]3C[C@@H]4[C@H](Cc5ccc6cc(F)c(N)nc6c5)CC[C@]4(O)[C@H]3O)c2n1 [Example 32, 2,2,2-trifluoroacetate]", "recorded.number": -0.40}
{"compound": "Nc1nc2c(F)c(C[C@@H]3CC[C@@]4(O)[C@@H]3O[C@@H](n3ccc5c(N)ncnc53)[C@@H]4O)ccc2cc1F", "recorded.number": -0.30}

Consider the compound shown here: Nc1nc2cc(C[C@@H]3CC[C@@]4(O)[C@@H]3O[C@@H](n3ccc5c(N)ncnc53)[C@@H]4O)ccc2cc1Br What is its recorded log10 EC50?
-0.52

Consider the compound shown here: Nc1nc2cc(C[C@@H]3CC[C@@]4(O)[C@@H]3C[C@@H](n3cc(F)c5c(N)ncnc53)[C@@H]4O)cc(F)c2cc1F What is its recorded log10 EC50?
-0.15

----------
- target.or.system: Full-length (FL)-PRMT5-MEP50 enzyme complex (Homo sapiens)
- Construct: Full-length (FL)-PRMT5-MEP50 enzyme complex (recombinant proteins from baculovirus-transfected Sf21 cells: FL-PRMT5; MW=73837 kDa and FL-MEP50; MW=38614); made in house; host or cells: baculovirus-transfected Sf21 insect cells
- measurement.description: PRMT5-MEP50 Enzyme Methylation Assay
- Format: biochemical
- protocol.conditions: one EC50: 4 parameters single site sigmoidal model; EC50 1: first value of 7 parameters biphasic model; 1.0 nM PRMT5-MEP50, 75 nM biotinylated peptide, 15 μM SAM; read-out: Enzyme Methylation Assay (EC50 or EC50 1)
Structures can show the parent of a compound that is named as a salt.
Here the recorded pEC50 is given for each entry.
// pEC50: -log10(molar conc.)

Use the examples below as a reference point.
{"molecule": "C[C@@]1(CCc2ccc3cc(F)c(N)nc3c2)C[C@@H](n2ccc3c(N)ncnc32)[C@H](O)[C@@H]1O [Example 116]", "pEC50": 8.62}
{"molecule": "Nc1nc2cc(C[C@@H]3CC[C@@]4(O)[C@@H]3O[C@@H](n3cc(F)c5c(N)ncnc53)[C@@H]4O)ccc2cc1F [Example 59]", "pEC50": 9.22}
{"molecule": "CCc1cn([C@@H]2O[C@@H]3[C@@H](Oc4ccc5cc(Br)c(N)nc5c4)CC[C@]3(O)[C@H]2O)c2ncnc(N)c12 [Example 69]", "pEC50": 8.96}
{"molecule": "Cc1ncnc2c1ccn2[C@@H]1C[C@@H]2[C@H](Cc3ccc4cc(Cl)c(N)nc4c3)CC[C@]2(O)[C@H]1O [Example 17]", "pEC50": 9.52}
{"molecule": "Nc1nc2cc(C[C@@H]3CC[C@@]4(O)[C@@H]3O[C@@H](n3cc(C(F)F)c5c(N)ncnc53)[C@@H]4O)ccc2cc1F [Example 51]", "pEC50": 8.92}
{"molecule": "Cc1nc(N)c2ccn([C@@H]3C[C@@H]4[C@H](Cc5ccc6cc(Br)c(N)nc6c5)CC[C@]4(O)[C@H]3O)c2n1 [Example 37]", "pEC50": 9.52}
{"molecule": "Cc1ncnc2c1ccn2[C@@H]1O[C@@H]2[C@@H](Oc3ccc4ccc(N)nc4c3)CC[C@]2(O)[C@H]1O [Example 113]", "pEC50": 8.96}
{"molecule": "Nc1nc2cc(C[C@@H]3CC[C@@]4(O)[C@@H]3O[C@@H](n3ccc5c(N)ncnc53)[C@@H]4O)ccc2cc1F [Example 124]", "pEC50": 9.52}

Consider the molecule shown here: Nc1nc2cc(O[C@H]3CC[C@@]4(O)[C@@H]3O[C@@H](n3ccc5c(N)ncnc53)[C@@H]4O)ccc2cc1Cl [Example 72] What is its recorded pEC50?
9.05

Consider the molecule shown here: Cc1cn([C@@H]2O[C@@H]3[C@@H](Oc4ccc5cc(Cl)c(N)nc5c4)CC[C@]3(O)[C@H]2O)c2ncnc(N)c12 [Example 64, 2,2,2-trifluoroacetate] What is its recorded pEC50?
9.52

Consider the molecule shown here: Cc1ncnc2c1ccn2[C@@H]1O[C@@H]2[C@@H](Oc3ccc4cc5c(nc4c3)NCC5)CC[C@]2(O)[C@H]1O [Example 89] What is its recorded pEC50?
8.89

Consider the molecule shown here: Nc1nc2cc(O[C@H]3CC[C@@]4(O)[C@@H]3O[C@@H](n3ccc5c(N)ncnc53)[C@@H]4O)ccc2cc1F [Example 71] What is its recorded pEC50?
8.80

Consider the molecule shown here: C[C@]1(COc2ccc3cc(Br)c(N)nc3c2)O[C@@H](n2ccc3c(N)ncnc32)[C@H](O)[C@@H]1O [Example 13] What is its recorded pEC50?
9.30

Consider the molecule shown here: C[C@@]1(O)[C@@H](CCc2ccc3cc(Br)c(N)nc3c2)O[C@@H](n2ccc3c(N)ncnc32)[C@@H]1O [Example 14] What is its recorded pEC50?
8.89

Consider the molecule shown here: C[C@]1(CCc2ccc3cc(Br)c(N)nc3c2)C[C@@H](n2ccc3c(N)ncnc32)[C@H](O)[C@]1(C)O [Example 117] What is its recorded pEC50?
9.00

Consider the molecule shown here: Cc1ncnc2c1ccn2[C@@H]1O[C@@H]2[C@@H](Oc3ccc4cc(Cl)c(N)nc4c3)CC[C@]2(O)[C@H]1O [Example 112] What is its recorded pEC50?
9.22

Consider the molecule shown here: Nc1nc2cc(C[C@@H]3CC[C@@]4(O)[C@@H]3O[C@@H](n3cc(C(F)F)c5c(N)ncnc53)[C@@H]4O)ccc2cc1Br [Example 43] What is its recorded pEC50?
9.40

Consider the molecule shown here: C[C@]1(CCc2ccc3cc(Br)c(N)nc3c2)O[C@@H](n2ccc3c(N)ncnc32)[C@H](O)[C@]1(C)O [Example 4] What is its recorded pEC50?
8.62

Consider the molecule shown here: C[C@]1(COc2ccc3ccc(N)nc3c2)C[C@@H](n2ccc3c(N)ncnc32)[C@H](O)[C@@H]1O [Example 101] What is its recorded pEC50?
9.52

Consider the molecule shown here: Cc1ncnc2c1ccn2[C@@H]1O[C@@H]2[C@@H](Cc3ccc4cc(Cl)c(N)nc4c3)CC[C@]2(O)[C@H]1O [Example 131] What is its recorded pEC50?
9.22

Consider the molecule shown here: Nc1nc2cc(C[C@@H]3CC[C@@]4(O)[C@@H]3O[C@@H](n3ccc5c(N)nc(Cl)nc53)[C@@H]4O)ccc2cc1F [Example 48] What is its recorded pEC50?
9.30

Consider the molecule shown here: Cc1nc(C)c2ccn([C@@H]3O[C@@H]4[C@H](Cc5ccc6cc(Br)c(N)nc6c5)CC[C@]4(O)[C@H]3O)c2n1 [Example 81] What is its recorded pEC50?
9.15

Consider the molecule shown here: Nc1ncc2c(F)cn([C@@H]3O[C@@H]4[C@@H](Oc5ccc6cc(Br)c(N)nc6c5)CC[C@]4(O)[C@H]3O)c2n1 [Example 130] What is its recorded pEC50?
9.22

Consider the molecule shown here: Nc1nc2cc(O[C@H]3CC[C@@]4(O)[C@@H]3O[C@@H](n3cc(F)c5c(N)ncnc53)[C@@H]4O)ccc2cc1Cl [Example 74] What is its recorded pEC50?
9.52

Consider the molecule shown here: Nc1nc2cc(O[C@H]3CC[C@@]4(O)[C@@H]3O[C@@H](n3cc(-c5ccccc5)c5c(N)ncnc53)[C@@H]4O)ccc2cc1Br [Example 49] What is its recorded pEC50?
9.30

Consider the molecule shown here: Nc1nc2nc(C[C@@H]3CC[C@@]4(O)[C@@H]3O[C@@H](n3ccc5c(N)ncnc53)[C@@H]4O)ccc2cc1Cl [Example 28, trihydrochloride] What is its recorded pEC50?
9.10
